Target: SARS2 protease (Severe acute respiratory syndrome coronavirus 2, UniProt P0DTD1)
Construct: SARS2 protease was added to a final concentration of 30 nM
Experiment: SARS-CoV-2 protease inhibition assay (SARS2 FRET protease assay)
Assay type: biochemical
Conditions: IC50 (μM), SARS2 protease 30 nM, peptide substrate 1.3 μM, 120 minutes at 37° C., compounds 20 μM to 0.075 nM
quantity: log10(IC50) (log10 of the value in µM)
A difference of one corresponds to tenfold IC50; all values are log10 with IC50 in µM.

The following compounds each have a reported value; give each one's log10(IC50).
1. CC(C)C[C@H](NC(=O)O[C@@H](c1ccccc1)C(C)(C)c1cccc(Cl)c1)C(=O)N[C@@H](C[C@@H]1CCNC1=O)C(=O)C(=O)NC1CC1
2. CC(C)C[C@H](NC(=O)O[C@H](c1cccc(Cl)c1)C1(c2cccc(Cl)c2)CC1)C(=O)N[C@H](C=O)C[C@@H]1CCNC1=O

[-0.10, -2.47]

The following compounds each have a reported value; give each one's log10(IC50).
1. CCNC(=O)C(=O)[C@H](C[C@@H]1CCNC1=O)NC(=O)[C@H](CC1CC1)NC(=O)OC(c1ccccc1)C(F)(F)c1cccc(Cl)c1 (stereo partly drawn)
2. CCCC[C@H](NC(=O)OC(c1ccc(F)cc1)C1(c2cccc(Cl)c2)CC1)C(=O)N[C@@H](C[C@@H]1CCNC1=O)C(=O)C(=O)NC1CC1 (stereo partly drawn)
3. CC(C)C[C@H](NC(=O)O[C@H](c1ccccc1)C(C)(C)c1cccc(Cl)c1)C(=O)N[C@@H](C[C@@H]1CCNC1=O)C(=O)C(=O)NC1CC1
4. CCCC[C@H](NC(=O)OC(c1ccccc1)C(F)(F)c1cccc(Cl)c1)C(=O)N[C@@H](C[C@H]1CCNC1=O)C(=O)C(=O)NCC (stereo partly drawn)
5. CCCC[C@H](NC(=O)O[C@@H](c1ccncc1)C(F)(F)c1cccc(Cl)c1)C(=O)N[C@@H](C[C@@H]1CCNC1=O)C(=O)C(=O)NC1CC1
6. CCC(CC)(c1cccc(Cl)c1)C(OC(=O)N[C@@H](CC(C)C)C(=O)N[C@H](C=O)C[C@@H]1CCNC1=O)c1cccc(Cl)c1 (stereo partly drawn)
7. CC(C)C[C@H](NC(=O)O[C@H](c1cccc(Cl)c1)C1(c2cccc(Cl)c2)CC1)C(=O)N[C@@H](C[C@@H]1CCNC1=O)C(=O)C(=O)NC1CC1

1: -3.70; 2: -1.28; 3: 0.45; 4: -0.04; 5: -1.26; 6: -0.59; 7: -1.00

The following compounds each have a reported value; give each one's log10(IC50).
1. CC(C)C[C@H](NC(=O)OC(c1ccccc1)C(F)(F)c1cccc(Cl)c1)C(=O)NC(CN1CCNC1=O)C(=O)C(=O)NC1CC1 (stereo partly drawn)
2. CCCCC[C@H](NC(=O)OC(c1ccccc1)C(F)(F)c1cccc(Cl)c1)C(=O)N[C@H](C=O)C[C@@H]1CCNC1=O (stereo partly drawn)

0.65
-2.15

---

Molecular target: SARS2 protease (Severe acute respiratory syndrome coronavirus 2, UniProt P0DTD1)
Construct: SARS2 protease was added to a final concentration of 30 nM
Experiment: SARS-CoV-2 protease inhibition assay (SARS2 FRET protease assay)
Assay type: biochemical
Conditions: IC50 (μM), SARS2 protease 30 nM, peptide substrate 1.3 μM, 120 minutes at 37° C., compounds 20 μM to 0.075 nM
// boundary case: IC50 equal to 0.3 µM maps to n; strictly smaller maps to y

| molecule | group |
| --- | --- |
| CC(C)C[C@H](NC(=O)O[C@H](c1ccccc1)C(F)(F)c1cccc(Cl)c1)C(=O)N[C@H](C=O)C[C@@H]1CCNC1=O | y |

Moving on to the next molecule.
Please state whether IC50 is below 0.3 µM for `O=C[C@H](C[C@@H]1CCCNC1=O)NC(=O)[C@H](CC1CCCCC1)NC(=O)O[C@@H](c1ccccc1)C(F)(F)c1cccc(Cl)c1` n
